- System: HCT-15
Could you please mark met for values of GI50 below 7 µM and not met for values at or above it?

| MOLECULE | CLASS_NAME |
| --- | --- |
| N#CCCC1(CCC#N)CCCCCCCCC(CCC#N)(CCC#N)C(=O)C1=O | not met |
| O=c1[nH]c2c(C(F)(F)F)c(Cl)c(-c3ccccc3)nc2o1 | not met |
| c1ccc(CSc2nc(N3CCCCC3)c3cn[nH]c3n2)cc1 | not met |
| CNC(=O)N(CCCC(NC(C)=O)C(=O)NCc1ccccc1)Cc1ccccc1 (stereo not given) | not met |
| COc1ccc([C@H]2[C@H]3COC(=O)[C@H]3C(C#N)=C3Sc4ccccc4N32)cc1 | not met |
| COc1cc([C@@H]2c3cc4c(cc3[C@@H](NC(=O)c3ccccc3)C3COC(=O)[C@@H]32)OCO4)cc(OC)c1O (stereo not given in full) | not met |
| O=C1c2ccccc2C(=O)c2c(/C=C\N3CCCCC3)ccnc21 | met |
| CC1=NN(C(=O)c2ccc(Cl)cc2)C(=O)/C1=C/c1cccc(O)c1 | not met |
| NC(=O)c1ccc(/N=N/O)nc1 | not met |
| CCN(CC)CCNc1ccc2ncn3c4c(OC)ccc(OC)c4c(=O)c1c23 | not met |
| OC1CC2CCC(C1)N2CCCN1c2ccccc2Sc2ccc(Cl)cc21 (stereo not given) | met |
| COCCOCC(=O)N(CCn1ccc(NC(c2ccccc2)(c2ccccc2)c2ccccc2)nc1=O)CCn1cnc2nc(N)[nH]c(=O)c21 | not met |
| O=C1NC(SSC2=NNC3(C(=O)N2)c2ccccc2-c2ccccc23)=NNC12c1ccccc1-c1ccccc12 | not met |
| C/C(=N\[N+](C)(C)C)C(c1ccccc1)C1(c2ccccc2)C(c2ccccc2)=C1c1ccccc1 (stereo not given) | not met |
| CC(=O)NC1=C[C@@H]([C@H]2COC(C)(C)O2)OC1=O | not met |
| Cc1ccc(C)n2c1nc1cc3ccccc3cc12 | met |
| O=C([O-])C1([n+]2c(-c3ccccc3)cc(-c3ccccc3)cc2-c2ccccc2)CC1 | not met |
| Cc1cccc(/N=C/c2ccc(N(CCC#N)S(=O)(=O)c3ccccc3)cc2C)c1 | not met |
| CC1(C)OCC(C2OC(OC(=O)c3ccc(C(F)(F)F)cc3)C3OC(C)(C)OC23)O1 (stereo not given) | not met |
| CCOC(=O)C(=Cc1[nH]c2ccccc2c1-c1c[nH]c2ccccc12)C(=O)OCC | not met |
| CC(=O)NC(CCCNC(=O)OCc1ccccc1)C(=O)NCc1ccccc1 (stereo not given) | not met |
| O=C1CS/C(=N/N=C/c2cn(Cc3ccc(Cl)cc3Cl)c3ccccc23)N1 | not met |
| CCOC(=O)C1S/C(=N\C(=N)N[N+](=O)[O-])N=C1C (stereo not given) | not met |
| CCN(CC)/[N+]([O-])=N/OCOC(C)=O | not met |
| CC1=NN2C(=N)/C(=C/c3ccccc3)C(=O)N=C2S1 | not met |
| COC(=O)C(C(=O)C(=O)Nc1ccccc1C)c1nc2ccc([N+](=O)[O-])cc2nc1O (stereo not given) | not met |
| CC(C)NC(=O)OCc1c(COC(=O)NC(C)C)c(-c2ccc[n+](COC(=O)C3CC3)c2)n2c1CCC2 | not met |
| COc1ccc(/C=C2\CCC(C)C3=C2N=c2s/c(=C/c4cccc(Br)c4)c(=O)n2C3c2ccc(OC)c(OC)c2)cc1OC (stereo not given) | not met |
| O=C(CNc1ccc(Cl)cc1)Nn1c(-c2ccccc2)nc2ccccc2c1=O | met |
| C=C1C(=O)OC2C=C(CCC(C)=O)C(C)C(OC(C)=O)CC12 (stereo not given) | met |
| Cc1ccc(S(=O)(=O)NC(=O)Nc2nc[nH]n2)cc1 | not met |
| CCOC(=O)C(=[N+]=[N-])C(=O)CN1C(=O)c2ccccc2C1=O | not met |
| CC(NC(=O)OC(C)(C)C)C(=O)NC(Cc1ccccc1)C(=O)NCC(=O)ON=C1CCCC1 (stereo not given) | not met |
| O=C(O[C@@H](/C=C/c1ccccc1)P1(=O)N(Cc2ccccc2)[C@H]2CCCC[C@@H]2N1Cc1ccccc1)c1ccccc1 | met |
| CCN1CCN=C2c3cc(OC)ccc3Nc3c([N+](=O)[O-])ccc1c32 | met |
| O=[N+]([O-])/C(Cl)=C(/C(Cl)=C(Cl)Cl)N1CCCCC1 | met |
| N#Cc1cccc(-n2[nH]c(=O)ccc2=O)c1 | not met |
| CCOC(=O)c1ccc(/N=C2\Sc3nc4ccccc4n3\C2=N\c2ccc(C(=O)OCC)cc2)cc1 | not met |
| Nc1nc(NCCCO)cc(=O)[nH]1 | not met |
| CCCNc1c(Cl)cc(Cl)c2[nH]c3ccccc3c(=O)c12 | not met |

====

- Test system: T47D
- PROTOCOL: NCI tumour cell line growth inhibition, 48 h
Activity calls are given as the source filed them. Cut-off read from the data, not from the text of the source: active = GI50 up to about 1.1 µM and inactive = higher.

| COMPOUND | GI50 |
| --- | --- |
| CCCCC/C=C\C=C\CCCCCCCCC(=O)OC | > 100 µM (inactive) |
| COC(=O)c1c(O)ccc2c1c1c(n2Cc2ccc(Cl)cc2Cl)C(=O)c2ccccc2C1=O | 1.97 µM (inactive) |
| COC(=O)C1(C)C=CC(=O)C2(C)C1C(O)C1OC3CC(c4ccoc4)C(C)=C3C1(C)C2CC(=O)O (stereo unspecified) | > 100 µM (inactive) |
| CC(=O)OC1COC(Nn2c(=O)[nH]c3ccccc3c2=O)C(OC(C)=O)C1OC(C)=O (stereo unspecified) | 47.1 µM (inactive) |
| C=CCNC(=O)NC1=CSC2=NC(=O)C3(NN12)c1ccccc1-c1ccccc13 | > 10 µM (inactive) |
| COC[C@H](Cc1ccccc1)/N=C/c1ccccc1 | > 100 µM (inactive) |
| C[C@]12CC(c3ccccc3O1)C(C#N)C(=O)N2 (stereo partly specified) | > 100 µM (inactive) |
| Oc1cc(CN2COc3ccccc32)c(O)cc1CNC1CCCCC1 | 26.4 µM (inactive) |
| NCC(=O)Nc1ccc(Cl)cc1C(=O)c1ccc[nH]1 | 54.1 µM (inactive) |
| COc1ccccc1NC(=O)CC(=O)N1N=C(C)C(/N=N/c2ccc(C(=O)O)cc2)C1=O (stereo unspecified) | > 100 µM (inactive) |
| N#CC(c1cc2c(cc1Br)OCO2)N1CCOCC1 (stereo unspecified) | > 100 µM (inactive) |

====

- Tested on: KM-20L2
- PROTOCOL: NCI tumour cell line growth inhibition, 48 h
Active and inactive are the calls of the source. Rule as the data show it: active = GI50 up to about 1.1 µM and inactive = higher.
Item-by-item account of GI50

| COMPOUND | GI50 |
| --- | --- |
| Cc1ccc(S(=O)(=O)N/N=C(\c2nc3ccc([N+](=O)[O-])cc3nc2O)C(O)c2ccccc2Cl)cc1 (stereo not drawn) | > 100 µM (inactive) |
| N/N=C(\c1nc2ccc(Cl)cc2nc1O)C(O)c1ccc(Cl)c(Cl)c1 (stereo not drawn) | > 100 µM (inactive) |
| CC1(C)C(O)OC(O)C1(C)C (stereo not drawn) | > 100 µM (inactive) |

====

- Test system: Hs-578T
- PROTOCOL: NCI tumour cell line growth inhibition, 48 h
Active and inactive are the calls of the source. Rule as the data show it: active = GI50 up to about 1.1 µM and inactive = higher.
Item-by-item account of GI50
ENDPOINT_NAME: GI50

| MOLECULE | ENDPOINT_RESULT |
| --- | --- |
| CC(=O)O[C@H]1C(=O)[C@@]2(C)[C@H]([C@H](OC(=O)c3ccccc3)[C@]3(O)C[C@H](OC(=O)[C@H](O)[C@@H](NC(=O)c4ccccc4)C4CCCCC4)C(C)=C1C3(C)C)[C@]1(OC(C)=O)CO[C@@H]1C[C@@H]2O | < 0.01 µM (active) |
| COc1ccc(CN2C(=O)CCC/C=C\[C@H]2CI)cc1 | 14.2 µM (inactive) |
| O=C(Cc1ccccc1)NCCCN(CCCCN(CCCNC(=O)Cc1ccccc1)C(=O)OCc1ccccc1)C(=O)OCc1ccccc1 | > 100 µM (inactive) |
| CC(=S)NC1C(Oc2ccc3c(C)cc(=O)oc3c2)OC(CO)C(O)C1O (centres undefined) | > 100 µM (inactive) |

====

- Tested on: K562
- PROTOCOL: NCI tumour cell line growth inhibition, 48 h
Active and inactive are the calls of the source. Cut-off read from the data, not from the text of the source: active = GI50 up to about 1.1 µM and inactive = higher.

| COMPOUND | SUBJECT_OF_TEST | GI50 |
| --- | --- | --- |
| CS(=O)(=O)C[S+]([O-])C[S+]([O-])C[S+]([O-])CC(NC(=O)CCC(N)C(=O)O)C(=O)O (stereo not given) | K562 | > 100 µM (inactive) |
| CC(C)NC(=O)OCc1c(COC(=O)NC(C)C)c(-c2ccc[n+](COC(=O)C3CC3)c2)n2c1CCC2 | K562 | 32.6 µM (inactive) |
| C=CCNC(=O)NC1=CSC2=NC(=O)C3(NN12)c1ccccc1-c1ccccc13 | K562 | > 10 µM (inactive) |
| COP1(=O)OCc2cnccc2O1 (stereo not given) | K562 | > 100 µM (inactive) |
| Nc1nc(Cl)cc(NCC2(O)CCC2)n1 | K562 | > 100 µM (inactive) |
| COc1cc2nncc(Sc3cnnc4ccccc34)c2cc1OC | K562 | 26 µM (inactive) |
| COc1ccc(\N=C/C=C/C(=C/COC(C)=O)OC(C)=O)cc1 | K562 | 4.89 µM (inactive) |
| Cc1cc(C)c2c(c1C)CN1CN2Cc2c(C)c(C)cc(C)c21 | K562 | 8.75 µM (inactive) |
| O=C1[C@@H]2Cc3c([nH]c4ccccc34)C(C3CCCCC3)N2C(=O)[C@@H]2CCCN12 (stereo not given in full) | K562 | 37.2 µM (inactive) |
| CC1(C)OC(C[C@]2(C#N)C[C@H](CCl)OC(C)(C)O2)C[C@@H](C[C@]2(C#N)C[C@H](CCl)OC(C)(C)O2)O1 (stereo not given in full) | K562 | > 100 µM (inactive) |
